B1: Twister Ribozyme (parent)
chain: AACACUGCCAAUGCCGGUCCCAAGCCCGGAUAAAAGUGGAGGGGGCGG

- Variants of: B1
- Measurement description: self-cleavage, relative activity (ratio to wild type); higher = more cleavage; co-transcriptional
List of self-cleavage values.
Enter the number alone.

Worked cases, answers included:
[[record]]
sequence_data = "AACCCUUCCAAUGCCGGUCCCAAGCCCGGAUAAAAGUGGAGGGGGCGG"
reported_endpoint = "self-cleavage"
endpoint_value = 0.0643

[[record]]
sequence_data = "AACACUGCCAAUGCCGGUCGCAAGCACGGAUAAAAGUGGAGGGGGCGG"
reported_endpoint = "self-cleavage"
endpoint_value = 0.0588

[[record]]
sequence_data = "AACACUGCCAAUGCCGGUCCCAAGCCCGGAUAAAAGUGGAGAGGGCGA"
reported_endpoint = "self-cleavage"
endpoint_value = 0.296


Problem: Record request: self-cleavage value, item `AACACUGCCAAUGCCGGUCCCAAGCCCGGAUAAAAUUGGACGGGGCGG`
Result: 0.114

Problem: Quick check: self-cleavage of `AACACUGCCAAUGCCGGUCCCGAGCCCGGCUAAAAGUGGAGGGGGCGG` ?
Result: 0.111

Problem: Sample `AACACUGCCAAUGCUGGUCCCAAGCCCGGAUAAUAGUGGAGGGGGCGG` — what was its self-cleavage?
Result: 0.68

Source listed as the RNAGym collection of RNA variant scans (doi:10.7554/elife.80360).
